tested-system: BaIMPDHΔL
Type: biochemical, Bacillus anthracis
stated-conditions: read-out: Ki(Q), observed ± std.err.
outcome-measure: Ki (µM)

>>> observed("NC(=O)C1=CN([C@@H]2O[C@H](COP(=O)(O)OP(=O)(O)OC[C@H]3O[C@@H](n4cnc5c(N)ncnc54)[C@H](O)[C@@H]3O)[C@@H](O)[C@H]2O)C=CC1 [NADH]")
620

* * *

tested-system: BaIMPDHΔL
Type: biochemical, Bacillus anthracis
stated-conditions: read-out: Ki(B), predicted
outcome-measure: Ki (mM)

>>> observed("NC(=O)c1ccc[n+]([C@@H]2O[C@H](COP(=O)([O-])OP(=O)(O)OC[C@H]3O[C@@H](n4cnc5c(N)ncnc54)[C@H](O)[C@@H]3O)[C@@H](O)[C@H]2O)c1 [NAD^+]")
6.61

* * *

tested-system: BaIMPDHΔL
Assay type: biochemical, Bacillus anthracis
stated-conditions: read-out: Ki(Q,B), predicted
outcome-measure: Ki (µM)

>>> observed("NC(=O)C1=CN([C@@H]2O[C@H](COP(=O)(O)OP(=O)(O)OC[C@H]3O[C@@H](n4cnc5c(N)ncnc54)[C@H](O)[C@@H]3O)[C@@H](O)[C@H]2O)C=CC1 [NADH]")
87.2
